# Test system: MDA-MB-453
# PROTOCOL_TEXT: Breast cancer cell line apoptosis assay (nucleosome ELISA)
# Assay type: cell-based
# RUN_CONDITIONS: Homo sapiens, MDA-MB-453, 24 h
MEASURE_NAME: EC50 (µM)
Form entry: value (µM) — number only.

# input Lab note: need EC50 with MDA-MB-453 for entry `O=C(O)CSc1cc(NS(=O)(=O)c2ccc(C(=O)O)cc2)c2ccccc2c1O` , please look it up.
# output 17.2

---

# TEST_SYSTEM: Stat3 (Homo sapiens, UniProt P40763)
# Construct: endogenous in cells; host or cells: HepG2
# PROTOCOL_TEXT: Immunoblot assay: IL-6-mediated phosphorylation of Stat3 in HepG2 cells
# Format: cell-based
MEASURE_NAME: IC50

# input Quick one: IC50 for CCN1C(=O)C(=Cc2ccc(-c3cc(C(=O)O)ccc3Cl)o2)C(=O)N(CC)C1=S [Cpd30-12] ?
# output 60 µM

---

# TEST_SYSTEM: GFP-Stat3α (Homo sapiens, UniProt P40763)
# Construct: expressed in transfected cells; host or cells: murine embryonic fibroblasts (MEF) deficient in endogenous Stat3
# Sequence (P40763 whole entry): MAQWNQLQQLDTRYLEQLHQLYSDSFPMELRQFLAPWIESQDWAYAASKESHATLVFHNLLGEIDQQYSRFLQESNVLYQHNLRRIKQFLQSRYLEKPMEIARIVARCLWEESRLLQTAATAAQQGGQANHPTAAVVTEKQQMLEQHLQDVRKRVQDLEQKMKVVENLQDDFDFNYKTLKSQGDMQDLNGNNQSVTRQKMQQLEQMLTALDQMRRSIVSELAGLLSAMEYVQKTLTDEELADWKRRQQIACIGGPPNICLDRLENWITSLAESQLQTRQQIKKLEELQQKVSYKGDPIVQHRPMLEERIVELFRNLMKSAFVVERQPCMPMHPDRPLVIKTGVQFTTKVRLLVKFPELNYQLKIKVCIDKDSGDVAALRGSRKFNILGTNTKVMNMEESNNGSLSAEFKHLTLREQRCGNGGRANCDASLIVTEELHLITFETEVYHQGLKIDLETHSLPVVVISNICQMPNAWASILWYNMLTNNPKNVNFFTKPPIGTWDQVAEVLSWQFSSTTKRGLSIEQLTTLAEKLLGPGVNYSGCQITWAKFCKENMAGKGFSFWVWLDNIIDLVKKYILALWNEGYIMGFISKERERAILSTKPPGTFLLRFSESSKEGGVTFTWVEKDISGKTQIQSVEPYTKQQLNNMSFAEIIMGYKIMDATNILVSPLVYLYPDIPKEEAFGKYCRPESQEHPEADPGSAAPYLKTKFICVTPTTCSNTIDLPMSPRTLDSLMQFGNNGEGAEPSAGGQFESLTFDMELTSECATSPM
# PROTOCOL_TEXT: High-throughput fluorescence microscopy (HTFM), cytoplasm-to-nucleus translocation inhibition in MEF/GFP-Stat3α cells
# Format: cell-based, murine
pIC50: −log10 of the molar value.
MEASURE_NAME: pIC50

# input Quick one: pIC50 for `CCN1C(=O)C(=Cc2ccc(-c3cc(C(=O)O)ccc3Cl)o2)C(=O)N(CC)C1=S` ?
# output < 3.52

---

# TEST_SYSTEM: Stat1 (Homo sapiens, UniProt P42224)
# Construct: endogenous in cells; host or cells: HepG2
# Sequence (P42224 whole entry): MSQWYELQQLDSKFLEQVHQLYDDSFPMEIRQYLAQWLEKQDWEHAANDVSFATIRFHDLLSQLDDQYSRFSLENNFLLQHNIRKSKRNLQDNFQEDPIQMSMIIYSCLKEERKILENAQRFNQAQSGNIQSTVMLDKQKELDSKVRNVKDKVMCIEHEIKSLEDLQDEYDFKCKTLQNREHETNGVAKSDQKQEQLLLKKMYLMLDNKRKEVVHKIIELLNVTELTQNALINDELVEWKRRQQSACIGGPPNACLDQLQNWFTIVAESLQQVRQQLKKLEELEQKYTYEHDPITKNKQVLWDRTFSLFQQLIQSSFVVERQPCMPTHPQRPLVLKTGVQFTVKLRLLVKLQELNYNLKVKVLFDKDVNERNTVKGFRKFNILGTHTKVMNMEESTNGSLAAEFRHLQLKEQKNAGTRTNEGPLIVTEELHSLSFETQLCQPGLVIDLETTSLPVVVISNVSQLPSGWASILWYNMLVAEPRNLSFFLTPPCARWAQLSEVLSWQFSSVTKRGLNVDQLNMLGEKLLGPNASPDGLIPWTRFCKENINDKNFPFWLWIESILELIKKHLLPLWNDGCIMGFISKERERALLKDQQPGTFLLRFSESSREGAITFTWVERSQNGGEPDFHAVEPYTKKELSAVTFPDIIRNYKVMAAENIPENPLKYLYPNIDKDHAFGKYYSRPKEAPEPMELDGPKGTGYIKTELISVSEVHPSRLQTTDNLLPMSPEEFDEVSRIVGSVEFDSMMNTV
# PROTOCOL_TEXT: Immunoblot assay: IFN-γ-mediated phosphorylation of Stat1 in HepG2 cells
# Format: cell-based
# RUN_CONDITIONS: 300 μM, 1 hour at 37° C. before IFN-γ stimulation
MEASURE_NAME: Stat1 phosphorylation blocked

Previously resolved entries follow.
| SMILES_ENTRY | Stat1 phosphorylation blocked |
| --- | --- |
| COC(=O)Cc1c(C)c2ccc(OCc3ccc(C(=O)OC)cc3)c(C)c2oc1=O | did not |
| O=C(O)c1ccc(C=CC(=O)c2ccc3c(c2)OCCO3)cc1 | did not |
| CCN1C(=O)C(=Cc2ccc(-c3ccc(C(=O)O)cc3)o2)SC1=S | did not |
| O=C(O)CSc1cc(NS(=O)(=O)c2ccc(C(=O)O)cc2)c2ccccc2c1O | did not |

// next entry
# input Quick one: Stat1 phosphorylation blocked for `CCOc1cc(C=C2C(=O)c3ccccc3C2=O)cc(Cl)c1OCc1cccc(C(=O)O)c1` ?
# output did not

Attribution: patent US20110312984A1
